Hey, just so you know, these numbers are from PubChem BioAssay (EPA / NIEHS).

read-out: Interleukin-1 alpha (IL1a), IL1A (gene 3552); assay: BSK_KF3CT_IL1a: BioMAP Diversity Plus: KF3CT Assay for Interleukin-1 alpha (IL1a) Biomarker Activity (AID 2283070); conditions: primary human keratinocytes with fibroblasts; actives raise or lower the signal
Calls of active or inactive are those of the source. Rule for the calls: active = hit-call score of the fitted dose curve at least 0.9, where 1 is the maximum; inactive = score below 0.9.

compound | AC50
COc1ccc2nc(N)sc2c1 | inactive
c1ccc2c(c1)ccc1cc3c(ccc4ccccc43)cc12 | inactive
CO[Si](OC)(OC)c1ccccc1 | inactive
N#[N+]c1ccc2c(S(=O)(=O)[O-])cccc2c1O | inactive
CC(C)(c1cc(Br)c(OCCO)c(Br)c1)c1cc(Br)c(OCCO)c(Br)c1 | 12.1 µM (active)
C/C=C\C/C=C/CCCCCCCCOC(C)=O | 26.3 µM (active)
O=C1CCCN1CCO | inactive
CCO[Si](CCCN=C=O)(OCC)OCC | inactive
c1ccc(-c2ccccn2)nc1 | inactive
CCCCC(CC)COC(=O)c1ccccc1O (centres undefined) | inactive
CC1OC1C1CCC2(C)OC2C1 (centres undefined) | inactive
C=CC(=O)OCC(Br)CBr (centres undefined) | 32.2 µM (active)
O=C(c1ccc(O)cc1)c1ccc(O)cc1O | inactive
c1ccc2c(c1)ccc1ncccc12 | 8.26 µM (active)

* * *

read-out: Interleukin-1 alpha (IL1a), IL1A (gene 3552); test: BSK_LPS_IL1a: BioMAP Diversity Plus: LPS Assay for Interleukin-1 alpha (IL1a) Biomarker Activity (AID 2283080); settings: primary human HUVEC with PBMC; actives raise or lower the signal
Calls of active or inactive are those of the source. The calls were made as follows: active = hit-call score of the fitted dose curve at least 0.9, where 1 is the maximum; inactive = score below 0.9.
Possible outcomes: active, inactive

compound | group.label
O=C(c1ccc(O)cc1)c1ccc(O)cc1O | inactive
CO[Si](OC)(OC)c1ccccc1 | inactive
CCCCC(CC)COCC1CO1 (centres undefined) | inactive
C#CC1(O)CC[C@H]2[C@@H]3CCC4=CCCC[C@@H]4[C@H]3CC[C@@]21C (some centres undefined) | active
N#[N+]c1ccc2c(S(=O)(=O)[O-])cccc2c1O | inactive
CCOc1nc(F)cc2nc(S(=O)(=O)Nc3c(Cl)cccc3C(=O)OC)nn12 | inactive
CN1C(=O)N(C)C(O)C1O (centres undefined) | inactive
c1ccc2c(c1)ccc1ncccc12 | active
S=C(NC1CCCCC1)NC1CCCCC1 | inactive
C=CC=CC=CCCCCC | inactive
O=c1c2ccccc2oc2ccccc12 | inactive
CC1OC1C1CCC2(C)OC2C1 (centres undefined) | inactive
CCCCCCCCCCCCCCCC[N+](C)(C)CC | active
c1ccc(-c2ccccn2)nc1 | inactive

* * *

Target: Estrogen receptor (Homo sapiens) (UniProt P03372)
Sequence (P03372 whole entry, looked up): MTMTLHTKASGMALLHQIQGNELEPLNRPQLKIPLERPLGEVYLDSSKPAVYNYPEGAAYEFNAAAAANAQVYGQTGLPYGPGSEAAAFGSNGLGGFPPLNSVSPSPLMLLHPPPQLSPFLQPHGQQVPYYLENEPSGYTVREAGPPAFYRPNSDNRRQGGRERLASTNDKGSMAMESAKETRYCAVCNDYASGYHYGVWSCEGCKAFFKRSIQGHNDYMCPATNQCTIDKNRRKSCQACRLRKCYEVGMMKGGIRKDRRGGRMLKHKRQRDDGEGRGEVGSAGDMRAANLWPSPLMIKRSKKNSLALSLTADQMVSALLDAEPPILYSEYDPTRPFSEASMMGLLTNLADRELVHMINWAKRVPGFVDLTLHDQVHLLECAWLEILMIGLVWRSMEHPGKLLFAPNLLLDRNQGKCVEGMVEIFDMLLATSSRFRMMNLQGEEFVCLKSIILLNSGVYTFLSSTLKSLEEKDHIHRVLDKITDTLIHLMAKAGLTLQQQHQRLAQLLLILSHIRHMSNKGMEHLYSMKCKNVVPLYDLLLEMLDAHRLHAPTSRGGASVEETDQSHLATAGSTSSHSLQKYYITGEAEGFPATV
Test: ATG_ERa_TRANS: Attagene TRANS-FACTORIAL HepG2 Assay for human Estrogen Receptor alpha (ERa) (AID 2282970)
Settings: HepG2 Attagene TRANS ERa GAL4 reporter, mRNA
Description: ATG_TRANS is a cell-based, multiplexed-readout assay that uses HepG2, a human liver cell line, with measurements taken at 24 hours after chemical dosing in a 24-well plate.ATG_ERa_TRANS is one of 30 assay component(s) measured or calculated from the ATG_TRANS assay. […] This assay endpoint, ATG_ERa_TRANS, was analyzed in the positive analysis fitting direction relative to DMSO as the negative control and baseline of activity. […]
Inconclusive results are not listed. The source made the active and inactive calls. How the source made its calls: active means hit-call score of the fitted dose curve at least 0.9, where 1 is the maximum; inconclusive means response in the unintended direction; inactive means score below 0.9.
Possible outcomes: class 1 = active, class 0 = inactive

molecule | group.label
O=c1[nH]c(=O)c2[nH]c(=O)[nH]c2[nH]1 | class 0
CC(=O)OCCC1CCCCC1 | class 0
CC(C)=CCCC(C)C=O (stereo not drawn) | class 0
CC1(C)O[C@@H]2C[C@H]3[C@@H]4C[C@H](F)C5=CC(=O)CC[C@]5(C)[C@H]4[C@@H](O)C[C@]3(C)[C@]2(C(=O)CO)O1 | class 0
O=C(c1ccccc1)C1CCC1 | class 0
ON(Cc1ccccc1)Cc1ccccc1 | class 0
COC(=O)c1cc(Cl)ccc1[N+](=O)[O-] | class 0
CCN(CC#N)c1cccc(C)c1 | class 0
Cc1cccc(N(C)C(=S)Oc2ccc3ccccc3c2)c1 | class 1
C=CC(=O)OCC(Br)CBr (stereo not drawn) | class 1
C=C1[C@H]2CC[C@@H]3[C@H]2C(C)(C)CCC[C@]13C | class 1
N[C@H]1C(O)O[C@H](CO)[C@H](O)[C@@H]1O (stereo partly drawn) | class 0
CCOC(=O)CC | class 0

* * *

experiment: CCTE_Shafer_MEA_dev_network_spike_peak: CCTE's Neural Network Formation Assay for Mean Number of Electrodes in Network Spike, Shafer Lab (AID 2284049);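 for AC50: fitted for loss of signal meaning fewer electrodes in network spikes than DMSO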
Active and inactive are the calls of the source. The calls were made as follows: active = hit-call score of the fitted dose curve at least 0.9, where 1 is the maximum; inactive = score below 0.9.
measure.name: AC50

compound | measure.name | value
COC(F)(F)C(F)(C(F)(F)F)C(F)(F)F | AC50 | inactive
CN(C)c1ccc(C(=N)c2ccc(N(C)C)cc2)cc1 | AC50 | 2.88 µM (active)
N[C@H]1C(O)O[C@H](CO)[C@H](O)[C@@H]1O (some centres not stated) | AC50 | 25.4 µM (active)
CC=CC(F)(F)C(F)(F)C(F)(F)F | AC50 | inactive
FC(F)=C(F)OC(F)(F)C(F)(F)C(F)(F)F | AC50 | inactive
c1ccc2c(c1)ccc1cc3c(ccc4ccccc43)cc12 | AC50 | inactive
CC1(C)S[C@@H]2[C@H](NC(=O)COc3ccccc3)C(=O)N2[C@H]1C(=O)O | AC50 | inactive

* * *

biological target: Transcription factor Sp1 (Homo sapiens) (UniProt P08047); experiment: ATG_Sp1_CIS: Attagene CIS-FACTORIAL HepG2 Assay for human Specificity Protein 1 (Sp1) (AID 2282961); details: HepG2 Sp1 cis-reporter transcription, actives raise or lower the signal
Sequence (P08047 whole entry, looked up): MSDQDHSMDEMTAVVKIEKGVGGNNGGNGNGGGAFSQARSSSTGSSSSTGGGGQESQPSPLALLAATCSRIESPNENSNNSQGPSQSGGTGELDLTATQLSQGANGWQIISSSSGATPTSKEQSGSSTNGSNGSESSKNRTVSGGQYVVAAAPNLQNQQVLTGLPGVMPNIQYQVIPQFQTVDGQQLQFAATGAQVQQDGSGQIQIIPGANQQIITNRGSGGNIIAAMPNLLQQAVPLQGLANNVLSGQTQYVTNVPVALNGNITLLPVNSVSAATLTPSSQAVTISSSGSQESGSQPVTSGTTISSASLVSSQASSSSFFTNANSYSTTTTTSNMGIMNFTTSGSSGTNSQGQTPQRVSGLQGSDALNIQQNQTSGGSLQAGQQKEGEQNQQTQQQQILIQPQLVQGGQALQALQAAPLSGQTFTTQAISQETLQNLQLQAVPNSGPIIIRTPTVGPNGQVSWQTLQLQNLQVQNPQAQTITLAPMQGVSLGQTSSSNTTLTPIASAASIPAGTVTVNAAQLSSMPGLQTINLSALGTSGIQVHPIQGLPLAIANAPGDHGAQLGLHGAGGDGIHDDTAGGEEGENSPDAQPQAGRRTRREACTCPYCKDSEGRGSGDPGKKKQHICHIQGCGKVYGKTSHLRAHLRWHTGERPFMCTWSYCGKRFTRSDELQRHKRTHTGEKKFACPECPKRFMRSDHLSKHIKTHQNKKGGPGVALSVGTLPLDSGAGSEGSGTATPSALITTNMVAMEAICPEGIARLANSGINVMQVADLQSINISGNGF
Activity calls are given as the source filed them. Rule for the calls: active = hit-call score of the fitted dose curve at least 0.9, where 1 is the maximum; inactive = score below 0.9.
Possible outcomes: active, inactive

molecule | target | group.label
CCCCCCC1(C)CCC(=O)O1 (stereo not given) | Transcription factor Sp1 (Homo sapiens) (UniProt P08047) | inactive
O=C(Nc1ccccc1)c1ccccc1O | Transcription factor Sp1 (Homo sapiens) (UniProt P08047) | inactive
Cc1ccc2c(c1)C(=O)c1ccccc1C2=O | Transcription factor Sp1 (Homo sapiens) (UniProt P08047) | inactive
CCOC(=O)CC | Transcription factor Sp1 (Homo sapiens) (UniProt P08047) | inactive
CCCCCCCCCCCCCOP(=O)(O)O | Transcription factor Sp1 (Homo sapiens) (UniProt P08047) | inactive
CC=CC(F)(F)C(F)(F)C(F)(F)F | Transcription factor Sp1 (Homo sapiens) (UniProt P08047) | inactive
CCCCC/C=C\C/C=C\CCCCCCCC(=O)OC | Transcription factor Sp1 (Homo sapiens) (UniProt P08047) | inactive
CCOC(=O)NNc1nncc2ccccc12 | Transcription factor Sp1 (Homo sapiens) (UniProt P08047) | inactive
Nc1nc2ccccc2[nH]1 | Transcription factor Sp1 (Homo sapiens) (UniProt P08047) | inactive
C=CC(C)(C)C | Transcription factor Sp1 (Homo sapiens) (UniProt P08047) | inactive
O=C(Nc1cccc(C(F)(F)F)c1)c1cc(Br)cc(Br)c1O | Transcription factor Sp1 (Homo sapiens) (UniProt P08047) | active
CC(C)=CCC/C(C)=C\C#N | Transcription factor Sp1 (Homo sapiens) (UniProt P08047) | inactive
O=[N+]([O-])c1ccc(CO)cc1 | Transcription factor Sp1 (Homo sapiens) (UniProt P08047) | inactive
CCN(CCO)c1cccc(C)c1 | Transcription factor Sp1 (Homo sapiens) (UniProt P08047) | inactive
C=C(C)[C@H]1CC=C(C)CC1 | Transcription factor Sp1 (Homo sapiens) (UniProt P08047) | inactive
O=C(c1ccc(O)cc1)c1ccc(O)cc1O | Transcription factor Sp1 (Homo sapiens) (UniProt P08047) | inactive
CO[Si](OC)(OC)c1ccccc1 | Transcription factor Sp1 (Homo sapiens) (UniProt P08047) | inactive
N#CCc1ccc(Cl)cc1Cl | Transcription factor Sp1 (Homo sapiens) (UniProt P08047) | inactive
Cc1ccc(OC(=O)CC(C)C)cc1 | Transcription factor Sp1 (Homo sapiens) (UniProt P08047) | inactive
CC(C)c1ccc(C#N)cc1 | Transcription factor Sp1 (Homo sapiens) (UniProt P08047) | inactive
O=C(O)C(c1ccc(Cl)cc1)c1ccc(Cl)cc1 | Transcription factor Sp1 (Homo sapiens) (UniProt P08047) | inactive
CCOC(=O)CC(C(C)=O)C(C)=O | Transcription factor Sp1 (Homo sapiens) (UniProt P08047) | inactive
Cc1cnc(NC(=O)C2=C(O)c3ccccc3S(=O)(=O)N2C)s1 | Transcription factor Sp1 (Homo sapiens) (UniProt P08047) | inactive
C1CN(SSN2CCOCC2)CCO1 | Transcription factor Sp1 (Homo sapiens) (UniProt P08047) | inactive
Cc1cccc(N)n1 | Transcription factor Sp1 (Homo sapiens) (UniProt P08047) | inactive
CC(C)(C)c1n[nH]c(=O)n(N)c1=O | Transcription factor Sp1 (Homo sapiens) (UniProt P08047) | inactive
[Cl][Bi]([Cl])([c]1ccccc1)([c]1ccccc1)[c]1ccccc1 | Transcription factor Sp1 (Homo sapiens) (UniProt P08047) | inactive
CCOC(=O)[C@H](C)O | Transcription factor Sp1 (Homo sapiens) (UniProt P08047) | inactive
Cc1cc(O)c(Cl)c(C)c1Cl | Transcription factor Sp1 (Homo sapiens) (UniProt P08047) | inactive
Cc1ccc(C2OC[C@@H]3OC(c4ccc(C)cc4)O[C@H]([C@H](O)CO)[C@@H]3O2)cc1 (stereo not given in full) | Transcription factor Sp1 (Homo sapiens) (UniProt P08047) | inactive
